system: ANKA strain of Plasmodium berghei; experiment: Single dose ED50/ED90/ED99 determination in infected mice; assay type: in vivo; details: po
Readout label: ED90
Could you kindly put the unit after your number?

These recorded examples may help you get a feel for the data.
Record CO[C@H]1O[C@@H]2O[C@@]3(C)CC[C@H]4[C@H](C)CC[C@@H]([C@H]1C)[C@@]24OO3 [AM, artemether, reference compound] , field ED90: 4.2 mg/kg

Record NC[C@H]1CC[C@]2(CC1)OOC1(O2)C2CC3CC(C2)CC1C3 (some centres unmarked) [OZ209] , field ED90: 1.4 mg/kg

Record O=C1CCC2(CC1)OOC1(O2)C2CC3CC(C2)CC1C3 (centres unmarked) [OZ05] , field ED90: 12 mg/kg

Others:
Record CC(C)(N)CNC(=O)C[C@H]1CC[C@]2(CC1)OO[C@]1(O2)C2CC3CC(C2)CC1C3 [OZ277] , field ED90: 2.0 mg/kg

Record c1cn(CC[C@H]2CC[C@]3(CC2)OOC2(O3)C3CC4CC(C3)CC2C4)cn1 (some centres unmarked) [OZ219] , field ED90: 3.0 mg/kg

----------
system: chloroquine-resistant K1 strain of P. falciparum; assay: In vitro antimalarial semiautomated microdilution assay ([3H]-hypoxanthine incorporation), K1 strain; type: cell-based, Plasmodium falciparum; settings: Plasmodium falciparum, K1, 72 h, read-out: IC50 (ng/ml) K1, chloroquine-resistant K1 strain, 72 h incubation
Where a name gives a salt, the structure may show the parent alone.
Rule: measured IC50 below 1 ng/mL gets yes (1); anything equal to or greater than 1 ng/mL gets no (0).

Reference set, count: 4
In: is_below(IC50, 1 ng/mL) for `NNC(=O)C[C@H]1CC[C@]2(CC1)OO[C@]1(O2)C2CC3CC(C2)CC1C3` ?
Out: no (0)

In: is_below(IC50, 1 ng/mL) for CC1(C)CC(NC2CCC3(CC2)OOC2(O3)C3CC4CC(C3)CC2C4)CC(C)(C)N1 (centres unmarked) [OZ171, dihydrochloride] ?
Out: no (0)

In: is_below(IC50, 1 ng/mL) for C=C1COC2(CCC3(CC2)OOC2(O3)C3CC4CC(C3)CC2C4)OC1 (centres unmarked) ?
Out: yes (1)

In: is_below(IC50, 1 ng/mL) for CC(=O)Nc1ccc(S(=O)(=O)N2CCC3(CC2)OOC2(O3)C3CC4CC(C3)CC2C4)cc1 (centres unmarked) ?
Out: no (0)

Please look at the following compound next.
In: is_below(IC50, 1 ng/mL) for COCC(=O)N(C1CCCCC1)C1CCC2(CC1)OOC1(O2)C2CC3CC(C2)CC1C3 (centres unmarked) ?
Out: no (0)

----------
Each entry below lists one item and its recorded Survival (days) 10 mg/kg sc value.
tested on: ANKA strain of P. berghei; assay: Single dose STI in vivo screen in infected mice; design: species or system Plasmodium berghei; details: single 10 mg/kg sc in 3% ethanol and 7% Tween 80; untreated 6-7 days; 10 mg/kg
Write the answer as a number in days, unit excluded.

These recorded examples may help you get a feel for the data.
Record c1ncn(C[C@H]2CC[C@]3(CC2)OOC2(O3)C3CC4CC(C3)CC2C4)n1 (some centres unmarked) [OZ177] , field Survival (days) 10 mg/kg sc: 17.7

Record CC1(C)COC(c2ccc([C@H]3CC[C@]4(CC3)OOC3(O4)C4CC5CC(C4)CC3C5)cc2)=N1 (some centres unmarked) , field Survival (days) 10 mg/kg sc: 7.7

Record NC[C@H]1CC[C@]2(CC1)OOC1(O2)C2CC3CC(C2)CC1C3 (some centres unmarked) [OZ209] , field Survival (days) 10 mg/kg sc: 12.5

Record OC12CC3CC(C1)C1(OOC4(CCC5(CC4)OCCO5)O1)C(C3)C2 (centres unmarked) [OZ153] , field Survival (days) 10 mg/kg sc: 6.3

Record OC12CC3CC(C1)C1(OOC4(CCC5(CC4)OCCO5)O1)C(C3)C2 (centres unmarked) [OZ152] , field Survival (days) 10 mg/kg sc: 6.7

Record c1cn(C[C@H]2CC[C@]3(CC2)OOC2(O3)C3CC4CC(C3)CC2C4)cn1 (some centres unmarked) , field Survival (days) 10 mg/kg sc: 10.7

Record NC[C@H]1CC[C@]2(CC1)OOC1(O2)C2CC3CC(C2)CC1C3 (some centres unmarked) [OZ181] , field Survival (days) 10 mg/kg sc: 11.0

# next compound below
Record c1ncn(C[C@H]2CC[C@]3(CC2)OOC2(O3)C3CC4CC(C3)CC2C4)n1 (some centres unmarked) [OZ235] , field Survival (days) 10 mg/kg sc: 8.0
